Assay: yeast display, Sf9 membrane polyspecificity reagent, FACS + sequencing; frameworks hold sequencing errors
property: polyreactivity (PSR sort gate)

Look over these answered cases.
QVQLVESGGGLVQAGGSLRLSCAASGFTFRIYAMGWYRQAPGKERELVAAITSVGSTYYADSVKGRFTISRDNAKNTVYLQMNRLKPEDTAVYYCNARATYYRFRYPYGYWGQGTQVTVSS = high polyreactivity
QVQLVESGAGLVQAGGSLRLTCAASGFIFRRNAMGWYRQAPGKERELVAAITTGGRTNYADSVKGRFTISRDNAKNTVYLQMNSLKPEDTPVYYCYAPVLDVIDVFYYARILFGYWGQGTQVTVSS = low polyreactivity
QVQLVESGGGLVQAGGSLRLSCAASGSIFVAYAMGWYRQAPGKERELVAAITAVGSTYYADSVKGRFTISRDNAKNTVYLQMNSLKAEDTAVYYCAKRQLRPTYRYGYWGQGNQVTVSS = low polyreactivity
QVQLVESGGGLVQAGGRLRLSCAASGRTFRGNVMGWYRQAPGKEREFVAAITKSDGSTYYADSVKGRFTISRDNAKNTVYLQMNSLKPEDTAVYYCAARTGRTGWPWFRYDYWGQGTQVTVSS = low polyreactivity
QVQLVESGGGLVQAGGSLRLSCAASGSTFFFYAMGWYRQAPGKERELVAAISRSGVSTYYADSVKGRFTISRDNAKNNVYLQMNSLKPEDTAVYYCAKGGSRDRYGYWGQGTQVTVSS = high polyreactivity
QVQLVESGGGLVQAGGSLRLSCAASGSIFIDYAMGWYRQAPGKERELVAAISWSGGSTYYADSVKGRFTISRDNAKNTVYLQMNSLKPEDTAVYYCAAYSHVSIWYDYDYWGQGTQVTVSS = low polyreactivity
QVQLVESGGGLVQAGGSLRLICAASGSTIAVYAIGWYRQAPGKERELVASISFSVVSTSYADSVKGRFTISRDNAKNTVYLQMNSLKPEDTAVYYCSTYYVRASYRYDYWGQGTQVTVSS = high polyreactivity
QVQLVESGGGLVQAGGSLRLSCAASGGTFTYSPMGWDREATGTERELVAAITDGGSTYYAVSVKGRFTISRDNAKTTFYLQMNSLKPEDTAVYYCAVRVRHNSKNTFFPYSYGYWGQGTQVTVSS = low polyreactivity

Query: polyreactivity (PSR sort gate); subject: QVQLVESGGGLVQAGGSLRLSCAASGRIFYYYAMGLYRQAPGKERELVAAISGSGGTTYNADSVKGRITISRDHAKNTVYLQMNSLKPEDTAVYYCAEVQYRYAREYYYWGQCTQVTVSS
high polyreactivity

Query: polyreactivity (PSR sort gate); subject: QVQLVESGGGLVQAGGSLRLSCAASGRTFPYNAMGWYRQAPGKERELVAAISWRGGSTYYADSVKGRFTISRDNAKNTVYLQMNSLKPEDTAVYYCNALYPVSYDHRGDYWGQGTQVTVSS
high polyreactivity

Query: polyreactivity (PSR sort gate); subject: QDQLVESGGGLVQAGGSLRLSCAASGFIIQCNAMGWYRQAPGKERELVAAISSSVSTYYADSVKGRFTISRDNAKNTVYLQMNSLKPEDTAVYYCNAGFPLSLWLGDYWGQGTQVTVSS
low polyreactivity
